Ref: ChEMBL document CHEMBL5335866

- protocol-details: Intrinsic clearance in human liver microsomes at 1 uM preincubated for 5 mins followed by NADPH addition measured for 60 mins by LC-MS/MS analysis
- Assay type: ADME, Microsome
- setup-conditions: time 65 min, read-out: CLH
quantity-kind: microsomal CLint at 1 µM (µL/min/mg)

| mol-smiles | measured-result |
| --- | --- |
| Cn1cc(-c2ccnc3[nH]ccc23)c(-c2ccc(F)cc2)n1 | 45 |
| Cn1cc(-c2ccnc3[nH]ncc23)c(-c2ccc(F)cc2)n1 | 9.4 |

P: Cn1cc(-c2ccnc3[nH]ccc23)c(-c2ccc(F)cn2)n1
Q: CC1(C)Cn2nc(-c3ccc(F)cn3)c(-c3ccnc4[nH]ccc34)c2CO1
Quick one: lower microsomal CLint at 1 µM, P or Q ? Identify your selection by its label.
P
